target: intracellular domain of human Tie2 (GST fusion protein) (Homo sapiens, UniProt Q02763); construct: intracellular domain of human Tie2 (amino acids 776-1124); assay: Tie2 kinase assay (Tie2-TR-FRET); settings: ATP concentration 1 mM, in some cases means of several independent determinations
Sequence (Q02763 776-1124): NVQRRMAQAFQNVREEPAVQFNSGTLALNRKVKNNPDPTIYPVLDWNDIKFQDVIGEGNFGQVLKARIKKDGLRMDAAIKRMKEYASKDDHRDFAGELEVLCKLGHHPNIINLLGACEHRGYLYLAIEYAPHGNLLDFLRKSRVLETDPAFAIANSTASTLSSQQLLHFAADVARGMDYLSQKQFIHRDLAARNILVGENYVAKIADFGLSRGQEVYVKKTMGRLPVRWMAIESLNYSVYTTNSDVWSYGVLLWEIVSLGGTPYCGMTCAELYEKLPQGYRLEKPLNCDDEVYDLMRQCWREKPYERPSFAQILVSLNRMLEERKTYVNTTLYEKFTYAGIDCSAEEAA
measured.endpoint: IC50 (nM)
Your answer is read as nM, so omit the unit and give the number.

Recorded IC50, per entry:
Cc1ccc(NC(=O)c2cc(Cl)cc(S(F)(F)(F)(F)F)c2)cc1-n1ccn2nc(-c3cccnc3)cc12 = 3.1
Cc1cc(C)c(-n2ccn3nc(-c4cccnn4)cc23)cc1NC(=O)c1cccc(S(F)(F)(F)(F)F)c1 = 1
Cc1cc(NC(=O)c2cccc(S(F)(F)(F)(F)F)c2)cc(-n2ccn3nc(-c4cccnc4)cc23)c1C = 175
Cc1cc(C)c(-n2ccn3nc(-c4cccnc4)cc23)cc1NC(=O)c1cccc(S(F)(F)(F)(F)F)c1 = 0.3
Cc1ccc(NC(=O)c2cc(N3CCN(C)CC3)cc(C(F)(F)F)c2)cc1-n1ccn2nc(-c3cccnc3)cc12 = 35

Query string: # input molecule: Cc1ccc(NC(=O)c2cc(S(C)(=O)=O)cc(S(F)(F)(F)(F)F)c2)cc1-n1ccn2nc(-c3cccnc3)cc12 ; wanted: its IC50
Result string: 0.8

These measurements were taken from patent US20150005288A1.
